target: D(3) dopamine receptor (Homo sapiens); experiment: qHTS of D3 Dopamine Receptor Antagonist: qHTS; details: D3R cells, DiscoveRx beta-arrestin luminescence, antagonist mode; hits give low values
About 9,100 (2.5%) of roughly 360,000 compounds were called active. Inconclusive results (about 4%) are left out. Shown is part of a subset that was picked to be rich in actives.
Mark each entry criterion met if its max response, negative = inhibition sits below -20%, and criterion not met for all others.

compound=CN(C)CCCn1c(=O)n(Cc2ccccc2)c(=O)c2c3c(sc21)CCCCC3 label_class="criterion met"
compound=C=CCc1cc(C)ccc1OCCCn1ccnc1 label_class="criterion not met"
compound=CC(=O)Nc1ccc(S(=O)(=O)N2CCN(CCCOc3cc(C)ccc3C)CC2)cc1 label_class="criterion not met"

A record lists CCc1nc2ccc(C(=O)NCc3ccc(OC)cc3)cn2c1N(CC)Cc1cccc(Br)c1 . Is its max response, negative = inhibition below -20%?
criterion not met

Determine whether this compound shows max response, negative = inhibition lower than -20% (ties excluded): OCCN1CCN(c2ncnc3c2ncn3[C@H]2CN(Cc3ccco3)C[C@@H](CO)O2)CC1
criterion not met
